- system: human GLP-1 receptor (human, UniProt P43220 24-463)
- run-description: cell-based or functional assay
Where no end group is shown, it is not given here. [ ]: non-standard residue; d: D form. Bip(2'-Et-4'-OMe) = CCc1cc(OC)ccc1-c1ccc(C[C@H](N)C(=O)O)cc1; αMePhe(2-F) = C[C@](N)(Cc1ccccc1F)C(=O)O; αMeBip(OMe) = alpha-methylated Bip(OMe); hhPhe = N[C@@H](CCCc1ccccc1)C(=O)O; αMeD = C[C@](N)(CC(=O)O)C(=O)O; αMeP = C[C@@]1(C(=O)O)CCCN1; αMeAPPA = not defined here; αMeS = C[C@](N)(CO)C(=O)O
metric: cAMP release, % activity with respect to control, at 10 nM

Query (binder): VHAQGT[αMePhe(2-F)]T[αMeS]D[αMeBip(OMe)][αMeAPPA] (not fully specified (C-terminus); printed as VHAQGT-(αMe-2FPhe)-T-(αMe-Ser)-D-(αMe-Bip(OMe))-(αMe-APPA); reading uncertain) [Seq. ID. No. 166] ; field requested: cAMP release, % activity with respect to control, at 10 nM
81 % of control

Query (binder): VH[αMeP]QGT[αMePhe(2-F)]T[αMeS][αMeD][Bip(2'-Et-4'-OMe)][αMeAPPA] (not fully specified (C-terminus); reading uncertain) [Seq. ID. No. 118] ; field requested: cAMP release, % activity with respect to control, at 10 nM
99 % of control

Query (binder): VVHAEGT[αMePhe(2-F)]TSD[αMeBip(OMe)][hhPhe]-NH2 [Seq. ID. No. 218] ; field requested: cAMP release, % activity with respect to control, at 10 nM
81 % of control

Query (binder): VH[αMeP]QGTFTSD[Bip(2'-Et-4'-OMe)][αMeAPPA] (not fully specified (C-terminus); printed as VH-(αMe-Pro)-QGTFTSD-Bip(OMe)-(αMe-APPA); reading uncertain) [Seq. ID. No. 84] ; field requested: cAMP release, % activity with respect to control, at 10 nM
81 % of control

Values were extracted from patent US20120264685A1.
